B1: r4_43_TrROS_Hall (parent)
chain: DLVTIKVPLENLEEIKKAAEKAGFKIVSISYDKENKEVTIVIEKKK

Variants of: B1
Experiment: folding stability dG (cDNA display proteolysis); higher = more stable
Settings: PBS, room temperature
Each entry below carries its recorded folding stability dG.
Measure Name: folding stability dG (kcal/mol)

* E20T | 3.27
* K46E | 3.84
* E43A | 3.71
* K36R | 3.88
* E37W | 3.92
* L9D | 3.42
* K46G | 3.38
* Y31E | 3.29
* I40C | 2.81
* A19M | 3.95
* E20S | 3.66
* S28Y | 3.88
* E34K | 3.83
* E34I | 3.88
* N35P | 3.2
* D32L | 3.21
* D1R | 3.42
* E37D | 3.49
* D1W | 4.07
* K45P | 3.64
* N11K | 3.65
* I29R | 2.47
* S28V | 3.22
* S30L | 3.74
* K25Q | 3.29
* K36T | 3.48
* V41H | 3.26
* E20K | 3.62
* K46R | 3.68
* I5E | 2.86
* V38Y | 4.2
* D1V | 4
* E13Y | 3.77
* F24M | 2.55
* I26W | 3.12
* I5S | 2.9
* I29S | 2.98
* L12Q | 3.25
* K33Y | 3.42
* V3H | 3.69
* K16L | 3.61
* L2W | 3.78
* P8W | 3.7
* V3A | 3.33
* I29H | 2.76
* L9I | 3.61
* E34A | 3.48
* E13N | 3.6
* D1N | 3.79
* E37K | 3.45
* K17H | 3.83
* G23T | 3.23
* L12I | 3.73
* D32H | 3.67
* L9H | 3.57
* I15M | 3.42
* V7Y | 3.24
* K25A | 3.12
* L9Y | 3.39
* E14R | 3.78
* T39C | 3.2
* E20C | 3.67
* K46C | 3.83
* N35F | 3.5
* I26Q | 2.02
* E43W | 4.7
* A18D | 3.57
* A22R | 3.68
* K25L | 3.05
* E43H | 3.88
* V41E | 3.48
* V27P | 1.89
* I26N | 1.35
* K25F | 3.9
* K45R | 3.94
* E13F | 3.99
* P8K | 3.71
* I26S | 1.81
* L9P | 3.53
* K16I | 3.9
* F24P | 1.47
* K6D | 2.82
* K6F | 3.62
* K25R | 4.04
* K46L | 3.65
* N35I | 3.52
* K45Y | 4.47
* S28D | 3.02
* K16G | 3.4
* E37A | 3.75
* D1M | 4.1
